Values compiled from paper PMC8452302.

For each entry below, report its 1B1 R-Value value.
target-system: OATP1B1 (Homo sapiens)
Sequence (Q9Y6L6 whole entry): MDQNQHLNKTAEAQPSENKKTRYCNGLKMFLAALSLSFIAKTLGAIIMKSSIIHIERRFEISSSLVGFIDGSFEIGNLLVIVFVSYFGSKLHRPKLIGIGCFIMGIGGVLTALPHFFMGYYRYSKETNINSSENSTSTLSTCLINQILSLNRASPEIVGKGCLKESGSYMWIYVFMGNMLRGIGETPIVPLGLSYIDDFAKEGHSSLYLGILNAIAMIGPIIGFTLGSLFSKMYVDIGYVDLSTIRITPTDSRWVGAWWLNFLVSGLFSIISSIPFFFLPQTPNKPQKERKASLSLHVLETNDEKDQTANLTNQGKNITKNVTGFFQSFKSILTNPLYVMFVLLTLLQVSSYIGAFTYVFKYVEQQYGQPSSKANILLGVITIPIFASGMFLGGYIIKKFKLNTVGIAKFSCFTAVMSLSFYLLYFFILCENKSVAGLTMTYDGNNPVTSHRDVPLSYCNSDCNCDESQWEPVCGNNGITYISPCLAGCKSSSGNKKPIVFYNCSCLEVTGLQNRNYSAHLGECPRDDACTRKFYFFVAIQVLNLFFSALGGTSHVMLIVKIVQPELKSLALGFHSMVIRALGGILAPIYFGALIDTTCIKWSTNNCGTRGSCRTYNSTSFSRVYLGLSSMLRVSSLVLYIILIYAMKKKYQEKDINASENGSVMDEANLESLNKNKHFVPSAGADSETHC
test-method-notes: Static DDI risk assessment, OATP1B1 R-value
study-conditions: 1 + Iin,max,u/IC50; metabolite/combination additive; Imax,u for IV
Please reply with the value in numeric form only.

// query 1B1 R-Value value for entry CC1=NN(c2ccc(C)c(C)c2)C(=O)/C1=N\Nc1cccc(-c2cccc(C(=O)O)c2)c1O [Eltrombopag]
1.01

// query 1B1 R-Value value for entry O=C(O)C[C@H]1CC[C@H](c2ccc(-c3ccc(Nc4ccc(C(F)(F)F)nc4)cn3)cc2)CC1 [Pradigastat]
1.03

// query 1B1 R-Value value for entry COC[C@H]1C[C@@H](c2ncc(-c3ccc4c(c3)COc3cc5c(ccc6nc([C@@H]7CC[C@H](C)N7C(=O)[C@@H](NC(=O)OC)C(C)C)[nH]c65)cc3-4)[nH]2)N(C(=O)[C@H](NC(=O)OC)c2ccccc2)C1 [Velpatasvir]
1.00

// query 1B1 R-Value value for entry CCCN(CCC)S(=O)(=O)c1ccc(C(=O)O)cc1 [Probenecid]
1.99

// query 1B1 R-Value value for entry CNC(=O)c1ccc(-c2cnc3ncc(Cc4ccc5ncccc5c4)n3n2)cc1F [Capmatinib]
1.35

// query 1B1 R-Value value for entry COC(=O)N[C@H](C(=O)N1CCC[C@H]1c1nc(-c2ccc3c(c2)O[C@@H](c2ccccc2)n2c-3cc3cc(-c4c[nH]c([C@@H]5CCCN5C(=O)[C@@H](NC(=O)OC)C(C)C)n4)ccc32)c[nH]1)C(C)C [Elbasvir]
1.00

// query 1B1 R-Value value for entry C[C@](O)(COc1ccc(C#N)cc1)C(=O)Nc1ccc(C#N)c(C(F)(F)F)c1 [Enobosarm]
1.00

// query 1B1 R-Value value for entry CC(C)(C)c1ccc(S(=O)(=O)Nc2ccc(Cl)cc2C(=O)c2cc[n+]([O-])cc2)cc1 [Vercirnon]
2.02

// query 1B1 R-Value value for entry COc1ccnc(C[S+]([O-])c2nc3ccc(OC(F)F)cc3[nH]2)c1OC (stereo not shown) [Pantoprazole]
1.01

// query 1B1 R-Value value for entry C=C[C@@H]1C[C@]1(NC(=O)[C@@H]1C[C@@H]2CN1C(=O)[C@H](C(C)(C)C)NC(=O)O[C@@H]1C[C@H]1CCCCCc1nc3ccc(OC)cc3nc1O2)C(=O)NS(=O)(=O)C1CC1.O [Grazoprevir]
1.24

// query 1B1 R-Value value for entry CC[C@H]1OC(=O)[C@H](C)[C@@H](O[C@H]2C[C@@](C)(OC)[C@@H](O)[C@H](C)O2)[C@H](C)[C@@H](O[C@@H]2O[C@H](C)C[C@H](N(C)C)[C@H]2O)[C@](C)(OC)C[C@@H](C)C(=O)[C@H](C)[C@@H](O)[C@]1(C)O [Clarithromcyin]
1.99

// query 1B1 R-Value value for entry CCCc1nc2c(C)cc(-c3nc4ccccc4n3C)cc2n1Cc1ccc(-c2ccccc2C(=O)O)cc1 [Telmisartan]
1.01

// query 1B1 R-Value value for entry Cc1ccc(C)c(OCCCC(C)(C)C(=O)O)c1 [Gemfibrozil]
2.60

// query 1B1 R-Value value for entry O=c1ccc2ccc(OCCCCN3CCN(c4cccc5sccc45)CC3)cc2[nH]1 [Brexpiprazole]
1.00

// query 1B1 R-Value value for entry C[C@H]1CN(C2COC2)CCN1c1ccc(Nc2cc(-c3ccnc(N4CCn5c(cc6c5CC(C)(C)C6)C4=O)c3CO)cn(C)c2=O)nc1 [Fenebrutinib]
1.46

// query 1B1 R-Value value for entry CC(C)c1noc(N2CCC(COc3ccc(-c4ccc(S(C)(=O)=O)cc4)nc3)CC2)n1 [GSK1292263]
1.03

// query 1B1 R-Value value for entry CCC(C)n1ncn(-c2ccc(N3CCN(c4ccc(OCC5COC(Cn6cncn6)(c6ccc(Cl)cc6Cl)O5)cc4)CC3)cc2)c1=O (stereo not shown) [Itraconazole]
1.01

// query 1B1 R-Value value for entry COC(=O)N[C@H](C(=O)N1CCC[C@H]1c1nc(-c2ccc(-c3ccc(-c4c[nH]c([C@@H]5CCCN5C(=O)[C@@H](NC(=O)OC)C(C)C)n4)cc3)cc2)c[nH]1)C(C)C [Daclatasvir]
1.18

// query 1B1 R-Value value for entry CC[C@H]1[C@@H](O)[C@@H]2[C@H](CC[C@]3(C)[C@@H]([C@H](C)CCC(=O)O)CC[C@@H]23)[C@@]2(C)CC[C@@H](O)C[C@@H]12 [Obeticholic acid]
1.02

// query 1B1 R-Value value for entry CO[C@H]1/C=C/O[C@@]2(C)Oc3c(C)c(O)c4c(O)c(c(/C=N/N5CCN(C)CC5)c(O)c4c3C2=O)NC(=O)/C(C)=C\C=C\[C@H](C)[C@H](O)[C@@H](C)[C@@H](O)[C@@H](C)[C@H](OC(C)=O)[C@@H]1C [Rifampicin]
10.20

// query 1B1 R-Value value for entry CC[C@H](Nc1ncnc2[nH]cnc12)c1nc2cccc(F)c2c(=O)n1-c1ccccc1 [Idelalisib]
1.19

// query 1B1 R-Value value for entry CC(O)c1cc(C(=O)N[C@@H](C)Cn2ccc(-c3ccc(C#N)c(Cl)c3)n2)[nH]n1 (stereo partly shown) [Darolutamide]
1.09
